# test-target: Dipeptidyl amino peptidase type IV (DPP IV)
# assay-method-text: cell-based or functional assay
Where no end group is shown, it is not given here. [ ]: non-standard residue; d: D form. The star is where a group is joined. boroPro = OB(O)[C@@H]1CCCN1*
Please provide measured IC50 at ten minutes, pH 2 for the entries that follow.
Answers are plain numbers, in nM.

# example entries with known answers
binder: GPV[boroPro] [GlyProValboroPro]
unit-spec: nM
recorded-measurement: 17

binder: YPA[boroPro] [Tyrosine-proline-alanine-proline boronic acid]
unit-spec: nM
recorded-measurement: 15

binder: APV[boroPro] [AlaProValboroPro]
unit-spec: nM
recorded-measurement: 20

Return reported IC50 at ten minutes, pH 2; argument: FPA[boroPro] [Phenylalanine-proline-alanine-proline boronic acid]
6
